Molecular target: Polymerase basic protein 2 (Influenza A virus (strain A/Puerto Rico/8/1934 H1N1))
Sequence (P03428 whole entry): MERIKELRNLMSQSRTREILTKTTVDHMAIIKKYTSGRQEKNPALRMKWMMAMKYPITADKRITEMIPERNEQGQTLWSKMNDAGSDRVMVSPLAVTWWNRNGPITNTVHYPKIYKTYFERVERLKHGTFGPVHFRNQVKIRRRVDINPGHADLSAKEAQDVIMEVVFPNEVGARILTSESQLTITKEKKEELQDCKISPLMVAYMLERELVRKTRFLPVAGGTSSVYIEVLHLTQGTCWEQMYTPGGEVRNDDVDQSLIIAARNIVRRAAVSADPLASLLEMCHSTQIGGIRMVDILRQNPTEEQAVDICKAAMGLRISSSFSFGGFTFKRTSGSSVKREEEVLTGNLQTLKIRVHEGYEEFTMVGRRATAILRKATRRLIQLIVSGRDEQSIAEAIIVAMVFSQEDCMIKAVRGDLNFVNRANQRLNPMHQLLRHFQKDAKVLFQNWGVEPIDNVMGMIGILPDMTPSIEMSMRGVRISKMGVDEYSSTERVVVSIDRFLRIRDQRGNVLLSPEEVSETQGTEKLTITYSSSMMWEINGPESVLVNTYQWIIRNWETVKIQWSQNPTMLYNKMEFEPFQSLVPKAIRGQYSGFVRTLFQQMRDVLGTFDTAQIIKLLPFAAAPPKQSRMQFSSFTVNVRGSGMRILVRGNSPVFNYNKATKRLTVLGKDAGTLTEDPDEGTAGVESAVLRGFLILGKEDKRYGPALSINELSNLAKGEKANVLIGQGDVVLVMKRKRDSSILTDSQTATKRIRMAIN
Experiment: Inhibition of influenza A virus polymerase PB2 expressed in HEK293T cells cotransfected with PGK-renilla-luciferase at 10 uM pretreated with cells for 2 hrs followed by enzyme addition and measured after 24 hrs by dual-Glo luciferase assay relative to control
Type: cell-based
Details: time 26.0 hrs
Note to self: values exactly at 40% are condition met. So inhibition at or above 40% is condition met, below is condition not met.

Compound | Target under test | Classification
O=C(O)[C@@H]1CCCN1Nc1nc(-c2c[nH]c3ncc(F)cc23)ncc1F | Polymerase basic protein 2 (Influenza A virus (strain A/Puerto Rico/8/1934 H1N1)) | condition not met
O=C(O)[C@@H]1CC2(CC2)CN1Nc1nc(-c2c[nH]c3ncc(F)cc23)ncc1F | Polymerase basic protein 2 (Influenza A virus (strain A/Puerto Rico/8/1934 H1N1)) | condition met
O=C(O)CN(Nc1nc(-c2c[nH]c3ncccc23)ncc1F)C1CCC1 | Polymerase basic protein 2 (Influenza A virus (strain A/Puerto Rico/8/1934 H1N1)) | condition not met
O=C(O)CN(Cc1ccccc1)Nc1nc(-c2c[nH]c3ncc(F)cc23)ncc1F | Polymerase basic protein 2 (Influenza A virus (strain A/Puerto Rico/8/1934 H1N1)) | condition not met
O=C(O)CN(Nc1nc(-c2c[nH]c3ncc(F)cc23)ncc1F)C1CCCC1 | Polymerase basic protein 2 (Influenza A virus (strain A/Puerto Rico/8/1934 H1N1)) | condition met
O=C(O)[C@@H]1CCCCN1Nc1nc(-c2c[nH]c3ncc(F)cc23)ncc1F | Polymerase basic protein 2 (Influenza A virus (strain A/Puerto Rico/8/1934 H1N1)) | condition met
O=C(O)[C@@H]1CCCCN1Nc1nc(-c2c[nH]c3ncccc23)ncc1F | Polymerase basic protein 2 (Influenza A virus (strain A/Puerto Rico/8/1934 H1N1)) | condition not met
O=C(O)[C@H]1C2CCC(CC2)[C@@H]1Nc1nc(-c2c[nH]c3ncc(F)cc23)ncc1F [PIMODIVIR] | Polymerase basic protein 2 (Influenza A virus (strain A/Puerto Rico/8/1934 H1N1)) | condition met
CC(C1CC1)N(CC(=O)O)Nc1nc(-c2c[nH]c3ncc(F)cc23)ncc1F (stereo not given) | Polymerase basic protein 2 (Influenza A virus (strain A/Puerto Rico/8/1934 H1N1)) | condition met
O=C(O)CN(Nc1nc(-c2c[nH]c3ncccc23)ncc1F)C1CCCC1 | Polymerase basic protein 2 (Influenza A virus (strain A/Puerto Rico/8/1934 H1N1)) | condition met

* * *

Reported selectivity ratio is given for each of the following compounds.
Assay: Selectivity index, ratio of CC50 for human A549 cells to EC50 for antiviral activity against Influenza A virus A/WSN/33(H1N1) infected in A549 cells
Type: toxicity, cell-based
Details: read-out: Ratio CC50/EC50

Smiles structure | Censor symbol | selectivity ratio
O=C(O)[C@@H]1CCCCN1Nc1nc(-c2c[nH]c3ncc(F)cc23)ncc1F | > | 87
O=C(O)[C@@H]1CC2(CC2)CN1Nc1nc(-c2c[nH]c3ncc(F)cc23)ncc1F | = | 60
CC(C)(C)N(CC(=O)O)Nc1nc(-c2c[nH]c3ncccc23)ncc1F | > | 597
O=C(O)[C@@H]1C[C@@H]2CCCC[C@@H]2N1Nc1nc(-c2c[nH]c3ncc(F)cc23)ncc1F | = | 1024
CC(C)(C)N(CC(=O)O)Nc1nc(-c2c[nH]c3ncc(F)cc23)ncc1F | > | 2920

* * *

Assay: Stability in mouse plasma assessed as half life
Type: ADME, cell-free

Smiles structure | half-life (h)
CC(C)(C)N(CC(=O)O)Nc1nc(-c2c[nH]c3ncc(F)cc23)ncc1F | 12

* * *

Reported Kd is given for each of the following compounds.
Molecular target: Polymerase basic protein 2 (Influenza A virus (strain A/Puerto Rico/8/1934 H1N1))
Experiment: Binding affinity to recombinant Influenza A virus polymerase PB2 cap-binding domain (318 to 413 residues) assessed as dissociation constant by ITC method
Observation type: Kd (nM)

Smiles structure | Reported result
O=C(O)[C@@H]1CC2(CC2)CN1Nc1nc(-c2c[nH]c3ncc(F)cc23)ncc1F | 145
O=C(O)[C@@H]1C[C@@H]2CCCC[C@@H]2N1Nc1nc(-c2c[nH]c3ncc(F)cc23)ncc1F | 202
CC(C)(C)N(CC(=O)O)Nc1nc(-c2c[nH]c3ncc(F)cc23)ncc1F | 46.2
CC(C)(C)N(CC(=O)O)Nc1nc(-c2c[nH]c3ncccc23)ncc1F | 468

* * *

Molecular target: Polymerase basic protein 2 (Influenza A virus (strain A/Puerto Rico/8/1934 H1N1))
Assay: Inhibition of influenza A virus polymerase PB2 expressed in HEK293T cells cotransfected with PGK-renilla-luciferase pretreated with cells for 2 hrs followed by enzyme addition and measured after 24 hrs by dual-Glo luciferase assay
Response field label takes Fulfilled when IC50 is strictly below 400 nM and Not fulfilled in all other cases.

Compound | Classification
O=C(O)[C@@H]1CC2(CC2)CN1Nc1nc(-c2c[nH]c3ncc(F)cc23)ncc1F | Not fulfilled
O=C(O)[C@@H]1C[C@@H]2CCCC[C@@H]2N1Nc1nc(-c2c[nH]c3ncc(F)cc23)ncc1F | Fulfilled
CC(C)(C)N(CC(=O)O)Nc1nc(-c2c[nH]c3ncccc23)ncc1F | Fulfilled
CC(C)(C)N(CC(=O)O)Nc1nc(-c2c[nH]c3ncc(F)cc23)ncc1F | Fulfilled
O=C(O)[C@H]1C2CCC(CC2)[C@@H]1Nc1nc(-c2c[nH]c3ncc(F)cc23)ncc1F [PIMODIVIR] | Fulfilled
O=C(O)[C@@H]1CCCCN1Nc1nc(-c2c[nH]c3ncc(F)cc23)ncc1F | Not fulfilled

* * *

Target: Polymerase basic protein 2 (Influenza A virus (strain A/Puerto Rico/8/1934 H1N1)) (UniProt P03428)
Sequence (P03428 whole entry, looked up): as the sequence (P03428 whole entry) above
Assay: Inhibition of influenza A virus polymerase PB2 expressed in HEK293T cells cotransfected with PGK-renilla-luciferase assessed as remaining activity at 10 uM pretreated with cells for 2 hrs followed by enzyme addition and measured after 24 hrs by dual-Glo luciferase assay relative to control
Assay type: cell-based
Details: time 26.0 hrs
Observation type: Activity (%)

Molecule | Observation type | Censor symbol | Reported result
CC(C)(C)N(CC(=O)O)Nc1nc(-c2c[nH]c3ncccc23)ncc1F | Activity | = | 0.2
O=C(O)[C@@H]1CC2(CC2)CN1Nc1nc(-c2c[nH]c3ncc(F)cc23)ncc1F | Activity | = | 21
O=C(O)[C@@H]1C[C@@H]2CCCC[C@@H]2N1Nc1nc(-c2c[nH]c3ncc(F)cc23)ncc1F | Activity | = | 0.1
O=C(O)[C@@H]1Cc2ccccc2CN1Nc1nc(-c2c[nH]c3ncc(F)cc23)ncc1F | Activity | = | 62
O=C(O)[C@H]1C2CCC(CC2)[C@@H]1Nc1nc(-c2c[nH]c3ncc(F)cc23)ncc1F [PIMODIVIR] | Activity | = | 0.1
O=C(O)CN(Cc1ccccc1)Nc1nc(-c2c[nH]c3ncc(F)cc23)ncc1F | Activity | > | 100
CC(C)(C)N(CC(=O)O)Nc1nc(-c2c[nH]c3ncc(F)cc23)ncc1F | Activity | = | 0.3
CC(C)(C)CN(CC(=O)O)Nc1nc(-c2c[nH]c3ncccc23)ncc1F | Activity | = | 65
CC(C1CC1)N(CC(=O)O)Nc1nc(-c2c[nH]c3ncc(F)cc23)ncc1F (configuration not stated) | Activity | = | 41
O=C(O)CN(Nc1nc(-c2c[nH]c3ncc(F)cc23)ncc1F)C1CCCC1 | Activity | = | 46
O=C(O)CN(Nc1nc(-c2c[nH]c3ncccc23)ncc1F)C1CCCC1 | Activity | = | 58
O=C(O)[C@@H]1CCCCN1Nc1nc(-c2c[nH]c3ncc(F)cc23)ncc1F | Activity | = | 12
O=C(O)[C@@H]1Cc2ccccc2CN1Nc1nc(-c2c[nH]c3ncccc23)ncc1F | Activity | = | 73
O=C(O)CN(Nc1nc(-c2c[nH]c3ncccc23)ncc1F)C1CCC1 | Activity | > | 100
O=C(O)[C@@H]1CCCCN1Nc1nc(-c2c[nH]c3ncccc23)ncc1F | Activity | = | 67
O=C(O)[C@@H]1CCCN1Nc1nc(-c2c[nH]c3ncc(F)cc23)ncc1F | Activity | = | 62
O=C(O)CN(Nc1nc(-c2c[nH]c3ncccc23)ncc1F)C1CCCCC1 | Activity | = | 34

* * *

Reported inhibition is given for each of the following compounds.
Biological target: Polymerase basic protein 2 (Influenza A virus (strain A/Puerto Rico/8/1934 H1N1))
Test: Inhibition of influenza A virus polymerase PB2 expressed in HEK293T cells cotransfected with PGK-renilla-luciferase at 10 uM pretreated with cells for 2 hrs followed by enzyme addition and measured after 24 hrs by dual-Glo luciferase assay relative to control
Assay type: cell-based
Conditions: time 26.0 hrs

Smiles structure | Target under test | Endpoint unit | inhibition
CC(C)(C)N(CC(=O)O)Nc1nc(-c2c[nH]c3ncccc23)ncc1F | Polymerase basic protein 2 (Influenza A virus (strain A/Puerto Rico/8/1934 H1N1)) | % | 99.8
CC(C)(C)N(CC(=O)O)Nc1nc(-c2c[nH]c3ncc(F)cc23)ncc1F | Polymerase basic protein 2 (Influenza A virus (strain A/Puerto Rico/8/1934 H1N1)) | % | 99.7
O=C(O)[C@@H]1Cc2ccccc2CN1Nc1nc(-c2c[nH]c3ncccc23)ncc1F | Polymerase basic protein 2 (Influenza A virus (strain A/Puerto Rico/8/1934 H1N1)) | % | 27
O=C(O)[C@@H]1Cc2ccccc2CN1Nc1nc(-c2c[nH]c3ncc(F)cc23)ncc1F | Polymerase basic protein 2 (Influenza A virus (strain A/Puerto Rico/8/1934 H1N1)) | % | 38
CC(C)(C)CN(CC(=O)O)Nc1nc(-c2c[nH]c3ncccc23)ncc1F | Polymerase basic protein 2 (Influenza A virus (strain A/Puerto Rico/8/1934 H1N1)) | % | 35
O=C(O)[C@@H]1C[C@@H]2CCCC[C@@H]2N1Nc1nc(-c2c[nH]c3ncc(F)cc23)ncc1F | Polymerase basic protein 2 (Influenza A virus (strain A/Puerto Rico/8/1934 H1N1)) | % | 99.9
O=C(O)CN(Nc1nc(-c2c[nH]c3ncccc23)ncc1F)C1CCCCC1 | Polymerase basic protein 2 (Influenza A virus (strain A/Puerto Rico/8/1934 H1N1)) | % | 65
